Kindly supply the reported TGI values for the records listed here.
- System: OVCAR-4 ovarian
- method: NCI tumour cell line growth inhibition, 48 h
Numbers only, in µM.

compound	system	recordedEndpoint	observedValue
Cc1cc(C)nc(NS(=O)(=O)c2ccc(Nc3c4ccc(Cl)cc4nc4c(C(=O)Nc5ccc(S(N)(=O)=O)cc5)cccc34)cc2)n1	OVCAR-4 ovarian	TGI	55.5
CC1OC(OC2C(O[C@H]3CC[C@@]4(C)C(=CC[C@H]5[C@@H]6C[C@@H]7O[C@]8(CC[C@H](C)CN8)[C@@H](C)[C@@H]7[C@@]6(C)CC[C@@H]54)C3)OC(CO)C(O)C2OC2OC(CO)C(O)C(O)C2O)C(O)C(O)C1O (some centres undefined)	OVCAR-4 ovarian	TGI	37
O=C(/C=C/c1ccc(O)c(O)c1)c1cc(O)cc(O)c1	OVCAR-4 ovarian	TGI	22.2
CCNC(=O)c1cc2c(-c3cc(C(C)(C)O)ccc3Oc3c(C)cc(F)cc3C)cn(C)c(=O)c2[nH]1	OVCAR-4 ovarian	TGI	16.6

[in] Using OVCAR-4 ovarian as the test system, report measured TGI of Cn1ccnc1C(=O)/C=C/c1ccccc1 .
[out] 26

====

Assign TGI to each entry below.
- Tested on: RXF 393 renal
- method: NCI tumour cell line growth inhibition, 48 h
Numbers only, in µM.

Observe how each entry below is paired with its result.
compound	TGI [µM]
COc1cc(/C=C/C(=O)c2ccc(NC(=O)CN3CCN(c4cc5c(cc4F)c(=O)c(C(=O)O)cn5C4CC4)CC3)cc2)cc(OC)c1OC	0.803
O=C(CC1(O)C(=O)Nc2c(Cl)cc(Cl)cc21)c1cccc2ccccc12 (stereo not given)	37.1
O=C(/C=C/c1ccc(O)c(O)c1)c1cc(O)cc(O)c1	22.8
N#CSCC1CC(O)(c2ccccc2)CC(c2ccc(F)cc2)O1 (stereo not given)	3.47
CC1(C)[C@@H](O[C@@H]2OC[C@@H](O[C@@H]3O[C@H](CO)[C@@H](O)[C@H](O)[C@H]3O[C@@H]3OC[C@@H](O)[C@H](O)[C@H]3O)[C@H](O)[C@H]2O[C@@H]2O[C@H](CO)[C@@H](O)[C@H](O)[C@H]2O)CC[C@]2(C)[C@H]3CC[C@]45OC[C@@]6(CC[C@](C)(C=O)C[C@H]64)[C@H](O)C[C@@]5(C)[C@]3(C)CC[C@@H]12	2.07
N#C/C(=C\c1cc(Cl)cc(Cl)c1)c1ccccn1	47.2
COC(=O)/C=C/c1ccc2c(c1)CC1(C2)Cc2cc3c(cc2C1=O)CCC3 (stereo not given)	84.9
CC1OC2(CC(OCc3ccccc3)C1OCc1ccccc1)OCCO2 (stereo not given)	74.4

Hi, could you look up TGI for each item in my list?
1. COc1ccc(Nc2c3ccccc3nc3ccccc23)cc1
2. COc1ccc(OC)c(CC2CCc3nc(N)nc(N)c3C2)c1 (stereo not given)

[out]
12.1
4.37

====

- Test system: M14 melanoma
- method: NCI tumour cell line growth inhibition, 48 h
Would you mind telling me the reported TGI of each entry?
Numbers only, in µM.

In [3]: df
Out[3]:
                                 smilesdata  observedvalue
0  COC(=O)c1ccc(C)cc1/C=C1\Cc2ccc(C)cc2C1=O           33.5
1       CCOC(=O)Cc1nc2sc(S(N)(=O)=O)nn2c1Br           33.8

Pending molecule:
[in] Determine from records and report TGI for O=C(/C=C/c1ccc(O)c(O)c1)c1cc(O)cc(O)c1
[out] 26.9

====

- Tested on: OVCAR-4 ovarian
- method: NCI tumour cell line growth inhibition, 48 h; in the data active = GI50 below about 0.43 µM; inactive = the rest
Non-standard residues stand in square brackets, D forms with d. Residues, ends and D or L forms follow the SMILES beside them. *: point of attachment. hSer = N[CH](CCO)C(=O)O; Boc = CC(C)(C)OC(=O)*
Hello, when you answer, please use one of the following outcomes: active, inactive

>>> df
                                   compound  answerlabel
0  O=C1/C(=C/c2ccc(Cl)cc2)N=C(c2ccccc2)N1CCc1cccs1     inactive
1  COCCC(NC(=O)C(CC(C)C)NC(=O)OC(C)(C)C)C(=O)OC (stereo not drawn) (Boc-Leu-[hSer](Me)-OMe; configuration not given here)     inactive
2  CC(=Nc1ccccc1)C1=C(O)C(Cc2ccccc2)NC1=O (stereo not drawn)       active
3  COc1ccc2c(c1)C(=O)c1c-2c(Nc2ccc(Cl)cc2)nc2ccccc12     inactive
4  CCCCCCCCCCCCCC[n+]1ccc2c(C)c3c(c(C)c2c1)c1cc(O)ccc1n3CC       active

[in] Dear all, I need the recorded test outcome for CN1c2ccccc2C(C)(C)C12C=Cc1cc(O)ccc1O2 (stereo not drawn) , thank you.
[out] inactive

[in] # outcome recorded in this test, key = CCC1CCc2nc3sc(C(=O)Nc4cccc(F)c4)c(N)c3cc2C1 (stereo not drawn)
[out] inactive

[in] What classification did Cc1c(COc2cc(OCc3cccc(C#N)c3)c(CN3C[C@H](O)C[C@@H]3C(=O)O)cc2Cl)cccc1-c1ccc2c(c1)OCCO2 end up with in this test?
[out] inactive

[in] How did this test come out for COc1cc2c3c(n(CCCI)c(=O)c2cc1OC)-c1cc2c(cc1C3=O)OCO2 ?
[out] inactive

[in] Tell me the assay call for Cn1ccnc1C(=O)/C=C/c1ccccc1 please.
[out] inactive

[in] Recorded test outcome, item N#CSCC1CC(O)(c2ccccc2)CC(c2ccc(F)cc2)O1 (stereo not drawn)
[out] inactive

[in] Outcome logged for COc1cc(/C=C/C(=O)c2c(C)nc3ccccc3c2C)ccc1OCCCOc1cc2c(cc1OC)C(=O)N1CCC[C@H]1C=N2 in this assay:
[out] active

[in] Call for entry C[C@@H](CO)[C@@H]1CCC=C2CC[C@]3(C)[C@H](CC[C@@H]4[C@@]5(C)CCCNC(C)(C)[C@@H]5CC[C@]43C)[C@H]21 :
[out] inactive

====

- Tested on: SK-OV-3 ovarian
- method: NCI tumour cell line growth inhibition, 48 h
recordedEndpoint: TGI

                                 smilesdata           system  observedvalue
0  O=C1CCC(=O)N1n1c(Cc2ccc(Cl)cc2)n[nH]c1=O  SK-OV-3 ovarian       > 100 µM
1  COc1cc(Nc2ccnc(NCCCNc3ccnc4cc(Cl)ccc34)n2)cc(OC)c1  SK-OV-3 ovarian        6.08 µM

# ---- query molecule ----
[in] Provide TGI, tested on SK-OV-3 ovarian, for Cc1cc(NC[C@H](O)[C@H](O)[C@H](O)CO)c(Sc2cc(=O)[nH]c(=O)[nH]2)cc1C .
[out] > 62.5 µM

====

Please respond with reported TGI for every item in the list.
- Test system: CCRF-CEM leukemia
- method: NCI tumour cell line growth inhibition, 48 h

Reference set (10 entries):
>>> df
                                   compound             system  observedvalue
0                O=C1CCCC/C1=C\c1ccc(Br)cc1  CCRF-CEM leukemia        94.4 µM
1  Cc1occc1C(=S)Nc1ccc(Cl)c(C(=O)OC(C)C2CC2)c1 (stereo not drawn)  CCRF-CEM leukemia       > 100 µM
2       COC1(OC)CC(CO)(CNc2cc(Cl)nc(N)n2)C1  CCRF-CEM leukemia       > 100 µM
3       COc1ccc2c(c1)n([O-])c1ccccc1[n+]2=O  CCRF-CEM leukemia       > 100 µM
4  CCn1cc(C(=O)O)c(=O)c2cc3c(cc21)S(=O)(=O)CC3  CCRF-CEM leukemia       > 100 µM
5  N#CSCC1CC(O)(c2ccccc2)CC(c2ccc(F)cc2)O1 (stereo not drawn)  CCRF-CEM leukemia        6.08 µM
6  COc1ccc2sc(-n3nc4ccccc4c3Nc3nc4ccc(OC)cc4s3)nc2c1  CCRF-CEM leukemia       > 100 µM
7                           O=C/C=C/c1ccco1  CCRF-CEM leukemia       > 100 µM
8    O=C(Cc1nc2ccccc2s1)Nc1cccc(C(F)(F)F)c1  CCRF-CEM leukemia        4.79 µM
9  COc1cc2c3c(c1OC)-c1c(ccc4c1OCO4)CC3(C#N)N(C(=O)c1ccccc1)CC2 (stereo not drawn)  CCRF-CEM leukemia       > 100 µM

Items follow; give TGI for each.
1. COc1cc(C2=C(C#Cc3ccccc3)COC2=O)cc(OC)c1OC
2. CC(=O)OC(CCC1(C)OC1COc1ccc(CCNC(=O)c2ccccc2)cc1)C(C)(C)OC(C)=O (stereo not drawn)
3. CCCCS(=O)(=O)CCC(N)C(=O)O (stereo not drawn)
4. CCc1cccc(C(C)C)c1N1C(=O)C(=O)C(c2nc3ccccc3s2)C(=O)C1=O
5. COc1ccc(/C=C2\CCC(CNc3ccc(OC)cc3)C2=O)cc1 (stereo not drawn)
6. CNC(=O)N(C)COC

[out]
1: 59.3 µM; 2: > 100 µM; 3: > 100 µM; 4: > 42.1 µM; 5: 29.9 µM; 6: > 100 µM
